method.description: recombinant barcode read abundance after kanamycin selection (control-corrected) (log10(CPM+1)); higher = more efficient recombination; sequences stand for … in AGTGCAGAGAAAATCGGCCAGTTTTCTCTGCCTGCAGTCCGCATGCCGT…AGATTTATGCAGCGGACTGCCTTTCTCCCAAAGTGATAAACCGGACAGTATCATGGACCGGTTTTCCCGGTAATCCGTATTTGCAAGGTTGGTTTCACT; site = the 11-nt target
Think of 0.5 as a floor: if recombinant barcode read abundance (log10) stands on it or above, it is Fulfilled; beneath it, Not fulfilled.

{"sequence.record": "ACGTAGACTTGGGTTCTAACCTGTTGCAG (site ACGTAGACTCT)", "category": "Fulfilled"}
{"sequence.record": "CGCGTTCCTTGGGTTCTAACCTGTTGCCT (site CGCGGTCCTAG)", "category": "Fulfilled"}
{"sequence.record": "GCGTGTCCTTGGGTTCTAACCTGTTGCCA (site CCGTGTCCTCG)", "category": "Not fulfilled"}
{"sequence.record": "GCCAAACCTTGGGTTCTAACCTGTTGCTA (site GCCAAACCTTA)", "category": "Not fulfilled"}
{"sequence.record": "CAAGTGGCTTGGGTTCTAACCTGTTGCCT (site CAAGTTGCTAG)", "category": "Fulfilled"}
{"sequence.record": "GCACGCCCTTGGGTTCTAACCTGTTGCCT (site TCCCGCCCTAG)", "category": "Not fulfilled"}
{"sequence.record": "ATCGGTCCTTGGGTTCTAACCTGTTGCCT (site ATAGGTCCTAG)", "category": "Not fulfilled"}
{"sequence.record": "TCGTGCGCTTGGGTTCTAACCTGTTGCCT (site TCGTGCCCTAG)", "category": "Not fulfilled"}
{"sequence.record": "TAGAACACTTGGGTTCTAACCTGTTGCTA (site TAGAACACTAA)", "category": "Not fulfilled"}
{"sequence.record": "GTATATACTTGGGTTCTAACCTGTTGCCT (site GTATATACTAG)", "category": "Fulfilled"}

---

Reported recombinant UMI read abundance (log10) is given for each of the following sequences.
method.description: recombinant UMI read abundance after kanamycin selection (control-corrected) (log10(CPM+1)); higher = more efficient recombination; extreme values may be limits of the assay; sequences stand for … in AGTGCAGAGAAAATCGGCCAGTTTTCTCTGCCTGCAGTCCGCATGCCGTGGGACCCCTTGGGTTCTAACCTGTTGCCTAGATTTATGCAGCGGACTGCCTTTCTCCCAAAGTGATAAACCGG…AGGTTGGTTTCACT; site = the 11-nt donor

{"sequence.record": "TGCCTTTCATGGACCGGTTTTCCCGGTAATCCGTATTTGAC (site TGCCTTTCTGT)", "recombinant UMI read abundance (log10)": 0}
{"sequence.record": "AGGGTGACATGGACCGGTTTTCCCGGTAATCCGTATTTGCA (site AGGAAGACTTG)", "recombinant UMI read abundance (log10)": 0.666}
{"sequence.record": "AATGTGGCATGGACCGGTTTTCCCGGTAATCCGTATTTGAC (site AATGTGCCTGT)", "recombinant UMI read abundance (log10)": 0.00397}
{"sequence.record": "GAGCTGACATGGACCGGTTTTCCCGGTAATCCGTATTTGAT (site GAGCTAACTAT)", "recombinant UMI read abundance (log10)": 2.08}
{"sequence.record": "GAGTTGGCATGGACCGGTTTTCCCGGTAATCCGTATTTGTA (site GAGTTGGCTTA)", "recombinant UMI read abundance (log10)": 2.18}
{"sequence.record": "CTTCTACCATGGACCGGTTTTCCCGGTAATCCGTATTTGCT (site CTTCTACCTAG)", "recombinant UMI read abundance (log10)": 0.00449}
{"sequence.record": "CCCAAATCATGGACCGGTTTTCCCGGTAATCCGTATTTGTC (site CCCAGATCTGA)", "recombinant UMI read abundance (log10)": 0}
{"sequence.record": "ACCCAAGCATGGACCGGTTTTCCCGGTAATCCGTATTTGAG (site AACCAAGCTCT)", "recombinant UMI read abundance (log10)": 0.712}
{"sequence.record": "TACGGTGCATGGACCGGTTTTCCCGGTAATCCGTATTTGAC (site TACGGTGCTGT)", "recombinant UMI read abundance (log10)": 1.15}
